# TARGET_DESC: Focal adhesion kinase 1 (Homo sapiens)
# MEASUREMENT_DESCRIPTION: small-molecule microarray binders of FAK, primary screen, biochemical, 635/667 nm fluorescence, BSA, DTT (AID 1130);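 also: composite of spot emission at 667 nm and signal to noise over triplicate slides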
# RUN_PARAMETERS: PTK2 binding, 635 nm fluorescence, higher = more signal
Quick rule: composite z-score of at least 1 means Met, below that means Not met.

[
  {
    "MOLECULE": "CO[C@H]1COC(=O)CC=C[C@H](C)COC(=O)[C@@H](OCc2ccccc2)C=C[C@@H]1C",
    "ASSIGNED_CLASS": "Not met"
  },
  {
    "MOLECULE": "COc1cccc([C@@H]2[C@@H](C)CC[C@H]3C(=O)N(C)[C@@H](C(C)C)C(=O)N23)c1",
    "ASSIGNED_CLASS": "Met"
  },
  {
    "MOLECULE": "C[C@]1(C(=O)NCCN2CCOCC2)c2ccccc2C(=O)N(Cc2ccccc2)[C@H]1c1ccc(CO)cc1",
    "ASSIGNED_CLASS": "Not met"
  },
  {
    "MOLECULE": "CO[C@H]1COC(=O)[C@H](CCSC)NC(=O)CC=C[C@@H](C)COC(=O)[C@@H](OCc2ccccc2)C=C[C@@H]1C",
    "ASSIGNED_CLASS": "Not met"
  },
  {
    "MOLECULE": "O=C1C2C=CC(C(O)Cc3ccccc3)N(Nc3ccc([N+](=O)[O-])cc3)C2C(=O)N1c1ccccc1 (stereo not drawn)",
    "ASSIGNED_CLASS": "Not met"
  },
  {
    "MOLECULE": "CC(C)[Si](OCC[C@H]1O[C@]2(C(=O)N(Cc3ccccc3)c3ccccc32)[C@@H](C)[C@@H]1[Si](C)(C)O)(C(C)C)C(C)C",
    "ASSIGNED_CLASS": "Not met"
  }
]

* * *

# MEASUREMENT_DESCRIPTION: inhibitors of hydroxyurea-induced Chk1 phosphorylation, primary screen, imaging, HeLa, phospho-Chk1 antibody, percent positive cells (AID 1186)
# RUN_PARAMETERS: hydroxyurea-induced phospho-Chk1 immunofluorescence imaging, higher = more signal

[
  {
    "COMPOUND": "COCCOC(=O)N1C(=O)[C@@]2(c3cc(C#CCNC(N)=O)ccc31)[C@H](C(=O)N1CCCCCCC1)[C@H]1C(=O)O[C@H](c3ccccc3)[C@H](c3ccccc3)N1[C@@H]2c1ccccc1OCCO",
    "z-score": -0.0292
  },
  {
    "COMPOUND": "COc1ccc(C(O)C2C=CC3C(=O)N(C)C(=O)C3N2N2CCCCC2)cc1OCc1ccccc1 (centres undefined)",
    "z-score": 0.245
  },
  {
    "COMPOUND": "C=CCNC(=O)[C@H]1[C@@H]2C(=O)O[C@@H](c3ccccc3)[C@@H](c3ccccc3)N2[C@@H](c2ccc(O)cc2)[C@]12C(=O)Nc1ccc(C#CCNC(N)=O)cc12",
    "z-score": 0.191
  },
  {
    "COMPOUND": "COCCCNC(=O)[C@@]1(Sc2ccc(C)cc2)CC(=O)N(Cc2cc(C(F)(F)F)cc(C(F)(F)F)c2)[C@@H]1c1ccc(CO)cc1I",
    "z-score": 0.007
  },
  {
    "COMPOUND": "COCC(=C=CC[C@H](O)c1ccc(OCCO)cc1)C[C@H](O)c1ccccn1",
    "z-score": -0.215
  },
  {
    "COMPOUND": "[N-]=[N+]=NCc1ccccc1C[C@]1(C(N)=O)N=C(c2ccc(OCCCO)cc2)O[C@H]1c1ccccc1CN=[N+]=[N-]",
    "z-score": -0.442
  },
  {
    "COMPOUND": "C/C(=N\\O)C(=O)NCCCCCNC(=O)OCc1ccccc1",
    "z-score": -0.103
  },
  {
    "COMPOUND": "COC(=O)C[C@H]1O[C@]2(C(=O)N(Cc3ccccc3)c3ccc(I)cc32)[C@@H](C)[C@@H]1[Si](C)(C)c1ccc(OC)cc1",
    "z-score": -0.504
  },
  {
    "COMPOUND": "CC(=O)NCCCC[C@@H]1NC(=O)[C@@H]2C[C@H](C(=O)NCc3ccc(F)cc3)[C@H](c3cccc(OCCO)c3)N2C1=O",
    "z-score": 0.676
  },
  {
    "COMPOUND": "O=C(CS)NCCCCCCNC(=O)[C@@H]1C[C@@H]2C(=O)N[C@@H](Cc3ccccc3)C(=O)N2[C@@H]1c1ccc(O)cc1",
    "z-score": -0.0496
  },
  {
    "COMPOUND": "COCCOC(=O)N1C(=O)[C@@]2(c3cc(C#CCNC(N)=O)ccc31)[C@H](c1ccccc1OCCO)N1[C@H](c3ccccc3)[C@H](c3ccccc3)OC(=O)[C@H]1[C@@H]2C(=O)NC[C@H](O)c1ccccc1",
    "z-score": 0.0689
  },
  {
    "COMPOUND": "Cc1cc(C)c(C(O)C2C=CC3C(=O)N(C)C(=O)C3N2N2CCCCC2)c(C)c1 (centres undefined)",
    "z-score": -0.514
  },
  {
    "COMPOUND": "Cc1ccc(N2C(=O)c3ccccc3[C@@H](C(=O)NCC(F)(F)F)[C@@H]2c2ccc(CO)cc2)nc1",
    "z-score": -0.0128
  },
  {
    "COMPOUND": "O=C(CS)NCCCCCNC(=O)[C@H]1C[C@H]2C(=O)N3CCC[C@H]3C(=O)N2[C@H]1c1ccc(O)cc1",
    "z-score": 0.23
  }
]

Values from PubChem BioAssay
